- Test system: Gp90 D234A (DNA polymerase, exonuclease-deficient) (Pseudomonas aeruginosa phage PaP1)
- Assay procedure: SPR
- Setup conditions: 30 mM Mg2+, 1 mM dATP (ternary complex, mispair); 8-oxoG at template position 35 from 5' end (28th from 3' end, first templating base); primer 3'-terminal ddC; SPR (Biacore 3000, SA chip, steady-state fit): 40 mM Tris-HCl pH 7.5, 10 mM DTT, 50 mM potassium glutamate, room temperature; 20-600 nM protein; ternary assays …
Quantity kind: Kd (nM)
Numbers only, in nM.

// returns reported Kd for input TTTGCTACAGAGTTATGGTGACGATACGTC / TGAATTCTAATGTAGTATAGTAATCCGCTCTATCGGACGTATCGTCACCATAACTCTGTAGC [30-mer(dd)/62-mer 8-oxoG primer-template]
45
